Measured cAMP Rel EC50, nM (1% HSA) by item
- study system: human glucagon receptor (human) (UniProt P47871)
- Sequence (P47871 26-477): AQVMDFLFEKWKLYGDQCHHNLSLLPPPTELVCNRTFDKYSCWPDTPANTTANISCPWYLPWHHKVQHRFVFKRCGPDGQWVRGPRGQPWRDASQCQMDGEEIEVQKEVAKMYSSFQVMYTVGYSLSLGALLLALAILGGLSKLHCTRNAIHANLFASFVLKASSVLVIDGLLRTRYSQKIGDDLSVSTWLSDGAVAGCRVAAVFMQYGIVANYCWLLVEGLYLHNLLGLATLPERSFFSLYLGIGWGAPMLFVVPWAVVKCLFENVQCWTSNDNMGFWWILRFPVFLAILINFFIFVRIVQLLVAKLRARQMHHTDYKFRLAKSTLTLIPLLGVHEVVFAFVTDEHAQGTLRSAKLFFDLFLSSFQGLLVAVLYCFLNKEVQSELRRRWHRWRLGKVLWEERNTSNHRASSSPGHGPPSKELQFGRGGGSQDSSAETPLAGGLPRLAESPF
- test name: cell-based or functional assay
Numbers only; they are read as nM.

These recorded examples may help you get a feel for the data.
YXQGTXTSDXSIXLDKKAQXAFIEYLSEGGPSSGAPPPS (synthetic construct; SITE 2: note = 2-Aminoisobutyric Acid; SITE 6: note = alpha-methyl-2-fluoro-L-phenylalanine; SITE 10: note = 3-(4-Pyridyl)-L-alanine; SITE 13: note = alpha-methyl-leucine; SITE 17: note = Lysine is chemically modified through conjugation of the epsilon-amino group of the Lysine) [Example 446] ... 516
YXQGTFTSDXSXXLDXKAQXQFIEXLIAGGPSSGAPPPSGSEE (non-natural residues (Aib, 4Pal, Orn, Me4Pal, αMeY); lipidated Lys; C-amide; synthetic construct; SITE 2: note = 2-Aminoisobutyric Acid; SITE 10: note = 3-(4-Pyridyl)-L-alanine; SITE 12: note = L-ornithine; SITE 13: note = alpha-methyl-leucine; SITE 16: note = L-ornithine; SITE 17: note = Lysine is chemically modified through conjugation of the epsilon-amino group of the Lys) [Example 992] ... 863

Find the measured cAMP Rel EC50, nM (1% HSA) of HXQGTXTSDYXIXLDXKAQXAFIEYLLEGGPSSGEPPPE (synthetic construct; SITE 2: note = 2-Aminoisobutyric Acid; SITE 6: note = alpha-methyl-2-fluoro-L-phenylalanine; SITE 11: note = alpha-methyl-L-serine; SITE 13: note = alpha-methyl-leucine; SITE 16: note = L-ornithine; SITE 17: note = Lysine is chemically modified through conjugation of the epsilon) [Example 381] and report it.
176

Data credit: patent US20240270821A1
